Tested on: HT-29 cells
Test: Inhibition test for sphere-forming ability of cancer cells (Test Example 1), HT-29
Format: cell-based, human
Details: concentration for 50% inhibition of cell proliferation, read-out: IC50 (μmol/L) HT-29 (Sphere IC50 value)
PARAMETER_MEASURED: IC50 (µmol/L)
Give just the numeric value; µmol/L need not be written.

A selection of reference data follows.
[[record]]
test_smiles = "CCOc1cccc(/C=C/C(=O)Nc2cn(Cc3cccc(Cl)c3)cn2)c1"
readout_number = 0.69

[[record]]
test_smiles = "COc1cc(/C=C/C(=O)Nc2cn(Cc3cccc(Cl)c3)cn2)c([N+](=O)[O-])cc1OC"
readout_number = 6.45


Please fill in: IC50 reported for O=C(/C=C/c1ccccc1F)Nc1cn(Cc2cccc(Cl)c2)cn1 = 0.89

Please fill in: IC50 reported for CNc1ccc(/C=C/C(=O)Nc2cn(Cc3cccc(Cl)c3)cn2)cn1 = 0.06
